Examples of compounds with documented pIC50 follow.
Tested on: 876862-298-R-J1-PDC complex spheroids, viability % test/control;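 note: spheroids exposed to drugs for 7 days before readout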
Test description: Anticancer human tumor 876862-298-R-J1-PDC patient-derived endometrial carcinoma cell line growth inhibition [CLK]
Test conditions: curve of first compound; second compound 0.1 µM
pIC50: −log10 of the molar value.

Compound: C=C(F)C(=O)N1CCN(c2nc(OCC3CCCN3C)nc3c2CCN(c2cccc4cccc(Cl)c24)C3)CC1CC#N (stereo not given) + CNC(=O)c1ccc(Nc2nc(OC3CCCC3)c3c(-c4ccc5nc(C)oc5c4)c[nH]c3n2)c(OC)c1
pIC50: > 7.50

Compound: CCN1CCN(Cc2ccc(Nc3ncc(F)c(-c4cc(F)c5nc(C)n(C(C)C)c5c4)n3)nc2)CC1 + CN1CCN(c2cc(C(=O)Nc3cc4cc(-c5cnn(C)c5)ccc4cn3)ccn2)CC1
pIC50: > 8.50

Compound: NC(=O)C(=Cn1cnc(-c2cc(C(F)(F)F)cc(C(F)(F)F)c2)n1)c1cncnc1 + CNC(=O)c1ccc(Nc2nc(OC3CCCC3)c3c(-c4ccc5nc(C)oc5c4)c[nH]c3n2)c(OC)c1
pIC50: > 8.02

Compound: O=C(c1cc(Cc2n[nH]c(=O)c3ccccc23)ccc1F)N1CCN(C(=O)C2CC2)CC1 + CN1CCN(c2cc(C(=O)Nc3cc4cc(-c5cnn(C)c5)ccc4cn3)ccn2)CC1
pIC50: 6.20

Consider the record given below.
Please tell me: pIC50 of Cn1ncnc1[C@H]1c2n[nH]c(=O)c3cc(F)cc(c23)N[C@@H]1c1ccc(F)cc1 + CN1CCN(c2cc(C(=O)Nc3cc4cc(-c5cnn(C)c5)ccc4cn3)ccn2)CC1 , system 876862-298-R-J1-PDC complex spheroids, viability % test/control?;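 note: spheroids exposed to drugs for 7 days before readout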
> 9.50
